Target desc: F876L mutant Androgen Receptor (AR-F876L) (Homo sapiens, UniProt P10275, F877L)
Construct: expressed in transfected cells; host or cells: LNCaP (LNCaP F876L)
Sequence (P10275 whole entry F877L): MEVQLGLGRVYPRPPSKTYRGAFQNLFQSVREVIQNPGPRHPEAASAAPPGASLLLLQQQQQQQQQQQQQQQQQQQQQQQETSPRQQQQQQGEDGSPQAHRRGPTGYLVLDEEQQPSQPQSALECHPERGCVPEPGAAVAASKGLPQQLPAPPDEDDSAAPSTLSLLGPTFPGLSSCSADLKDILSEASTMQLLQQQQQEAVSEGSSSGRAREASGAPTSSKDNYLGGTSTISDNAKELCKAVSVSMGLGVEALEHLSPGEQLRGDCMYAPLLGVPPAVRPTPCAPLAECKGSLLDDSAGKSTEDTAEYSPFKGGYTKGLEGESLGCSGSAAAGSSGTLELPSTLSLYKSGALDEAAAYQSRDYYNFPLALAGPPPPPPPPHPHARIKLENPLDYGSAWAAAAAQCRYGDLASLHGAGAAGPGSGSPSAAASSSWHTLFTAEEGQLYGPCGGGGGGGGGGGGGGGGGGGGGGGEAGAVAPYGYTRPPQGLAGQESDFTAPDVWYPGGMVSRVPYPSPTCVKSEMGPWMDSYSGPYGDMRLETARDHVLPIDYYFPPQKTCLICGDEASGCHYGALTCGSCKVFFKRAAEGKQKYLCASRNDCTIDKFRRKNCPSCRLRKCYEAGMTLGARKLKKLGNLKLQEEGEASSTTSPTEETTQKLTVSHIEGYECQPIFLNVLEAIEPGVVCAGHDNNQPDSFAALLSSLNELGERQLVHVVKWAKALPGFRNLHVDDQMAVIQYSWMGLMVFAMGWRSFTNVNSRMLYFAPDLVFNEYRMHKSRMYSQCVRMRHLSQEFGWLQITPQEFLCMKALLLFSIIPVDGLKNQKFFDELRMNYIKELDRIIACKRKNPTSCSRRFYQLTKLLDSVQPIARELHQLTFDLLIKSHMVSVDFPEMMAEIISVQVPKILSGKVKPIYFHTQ
Test: LNCaP-AR-F876L ANT reporter assay (ARE firefly luciferase, antagonist mode)
Format: cell-based
Cond: read-out: LNCaP-AR-F876L ANT pIC50 (converted)
Please note: IC50 exactly at 300 nM is 0.0. Only values below 300 nM get 1.0.

// below: answered molecules
CN1CCC(Oc2ccc(N3C(=S)N(c4cnc(C#N)c(C(F)(F)F)c4)C(=O)C34CCC4)c(F)c2)CC1 [Cpd 49]	1.0
N#Cc1ncc(N2C(=O)C3(CCC3)N(c3cccc(CO)c3)C2=S)cc1C(F)(F)F [Cpd 81]	0.0
Cc1cc(N2C(=O)C3(CCC3)N(c3ccc(OC4CCS(=O)(=O)CC4)cc3)C2=S)cnc1C#N [Cpd 6]	1.0
CCOC(=O)CNC(=O)c1ccc(N2C(=S)N(c3cnc(C#N)c(C(F)(F)F)c3)C(=O)C23CCC3)cc1F [Cpd 41]	1.0
N#Cc1ncc(N2C(=O)C3(CCC3)N(c3ccc(C4CCOCC4)cc3)C2=S)cc1C(F)(F)F [Cpd 89]	0.0

Query: Dear colleague, could you confirm whether IC50 of N#Cc1cccc(N2C(=S)N(c3cnc(C#N)c(C(F)(F)F)c3)C(=O)C23CCC3)c1 [Cpd 79] falls below 300 nM? Thanks.
Result: 0.0

Query: Lab note: IC50 threshold 300 nM. Does this molecule come in strictly under it? N#Cc1ncc(N2C(=O)C3(CCC3)N(c3ccc(Oc4cncnc4)cc3)C2=S)cc1C(F)(F)F [Cpd 88]
Result: 1.0

Query: In plain terms, does N#Cc1ccc(N2C(=S)N(c3cnc(C#N)c(C(F)(F)F)c3)C(=O)C23CCC3)cc1 [Cpd 120] come in under 300 nM for IC50?
Result: 1.0

Query: Is the reported IC50 for N#Cc1ncc(N2C(=O)C3(CCC3)N(c3ccc(C(=O)NCCCN4CCOCC4)c(F)c3)C2=S)cc1C(F)(F)F [Cpd 72] strictly below 300 nM?
Result: 1.0
